Assay: Half life in human microsomes
Format: ADME, Microsome
MEASURED_QUANTITY: half-life
Field note: include the unit after the figure.

- Cc1[nH]c(-c2cccc3ccccc23)cc1C(=O)N1CCC(CO)CC1: 41 min
- Cn1nc(-c2cccc3ccccc23)cc1C(=O)N1CCC(CO)CC1: 36 min
- CCn1nc(-c2cccc3cccnc23)cc1-c1ccc(N)nn1: 16 min

Okay, next one:
Task item: Quick one: give measured half-life for `Cc1nc(-c2cccc3ccccc23)sc1C(=O)N1CCC(CO)CC1`
Reply: 21 min

* * *

Experiment: Permeability across basolateral to apical side in human Caco2 cells
Assay type: ADME, cell-based
Conditions: Caco-2, read-out: permeability
Listed below: Papp B→A values for each entry.
Express it in ×10⁻⁶ cm/s; write the number only.

* Cc1nc(-c2cccc3ccccc23)sc1C(=O)N1CCC(CO)CC1 | 17.5
* CCn1nc(-c2cccc3cccnc23)cc1-c1ccc(N)nn1 | 52.8
* Cc1[nH]c(-c2cccc3ccccc23)cc1C(=O)N1CCC(CO)CC1 | 21.9

Next item in the queue.
Task item: Recall and state the measured Papp B→A for `Cn1nc(-c2cccc3ccccc23)cc1C(=O)N1CCC(CO)CC1` .
Reply: 16.8

* * *

Test: Ratio of drug uptake in Sprague-Dawley rat brain to plasma at 30 mg/kg, po measured at 7 hrs post dose by LC/MS-MS analysis
Assay type: ADME, organism-based
Conditions: read-out: BPR
MEASURED_QUANTITY: Kp at 7 h
# print the numeric value only

Task item: Report measured Kp at 7 h; entry is `Cc1nc(-c2cccc3ccccc23)sc1C(=O)N1CCC(CO)CC1`
Reply: 0.05

* * *

Experiment: Plasma concentration in Sprague-Dawley rat at 30 mg/kg, po measured at 2 hrs post dose by LC/MS-MS analysis
Type: ADME, organism-based
MEASURED_QUANTITY: concentration at 2 h (nM)
The reply should contain only the number, in nM.

Task item: Specify reported concentration at 2 h for the compound shown: `Cn1nc(-c2cccc3ccccc23)cc1C(=O)N1CCC(CO)CC1`
Reply: 2480

* * *

Biological target: 5-hydroxytryptamine receptor 2C (Homo sapiens)
Sequence (P28335 whole entry): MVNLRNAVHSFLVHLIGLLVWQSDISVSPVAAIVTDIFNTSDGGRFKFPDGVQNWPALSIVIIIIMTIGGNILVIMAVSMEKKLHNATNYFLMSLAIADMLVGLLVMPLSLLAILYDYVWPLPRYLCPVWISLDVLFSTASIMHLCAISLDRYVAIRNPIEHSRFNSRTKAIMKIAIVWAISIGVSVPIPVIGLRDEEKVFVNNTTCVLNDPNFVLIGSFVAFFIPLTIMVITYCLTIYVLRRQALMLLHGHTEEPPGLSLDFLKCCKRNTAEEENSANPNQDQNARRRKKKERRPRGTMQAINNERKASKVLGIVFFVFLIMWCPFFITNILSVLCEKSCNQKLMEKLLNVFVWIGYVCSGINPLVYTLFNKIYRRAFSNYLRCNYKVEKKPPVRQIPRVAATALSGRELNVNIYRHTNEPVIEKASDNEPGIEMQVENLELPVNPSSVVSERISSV
Assay: Agonist activity at recombinant human 5-HT2C receptor expressed in HEK293E cells assessed as induction of intracellular Ca2+ levels after 90 secs by Fluo-4-dye based FLIPR assay
pEC50: −log10 of the molar value.
Please note: met applies when pEC50 is 8 or greater, and not met applies otherwise.

Before answering, review these 3 worked examples.
- Cc1nc(-c2cccc3ccccc23)n(C)c1C(=O)N1CCC(CO)CC1: not met
- Cc1cc(-c2cccc3ccccc23)sc1C(=O)N1CCC(CO)CC1: not met
- CCn1nc(-c2cccc3ccccc23)cc1-c1nnnn1C: not met

Task item: Quick check: does `CCn1nc(-c2cccc3cnccc23)cc1-c1cccnn1` have pEC50 greater than or equal to 8?
Reply: not met

Task item: Is reported pEC50 greater than or equal to 8 here: `CCn1nc(-c2cccc3cccnc23)cc1-c1cccnn1`
Reply: met

Task item: Please indicate if the recorded pEC50 for `Cc1sc(-c2cccc3ccccc23)nc1C(=O)N1CCOCC1` meets or exceeds 8.
Reply: not met

Task item: Is reported pEC50 greater than or equal to 8 here: `CCn1nc(-c2cccc3cccnc23)cc1-c1ccc(N)nn1`
Reply: met

Task item: Exam item: decide whether the reported pEC50 for `Cc1sc(-c2cccc(Cl)c2Cl)nc1C(=O)N1CCOCC1` is at least 8.
Reply: not met

Task item: Item `O=C(c1csc(-c2ccccc2Cl)n1)N1CCOCC1` with pEC50 of 8 or above?
Reply: not met

Task item: Entry `O=C(c1csc(-c2cccc(F)c2Cl)n1)N1CCOCC1` : is its pEC50 no less than 8?
Reply: not met

Task item: Confirm if pEC50 reported for the molecule `O=C(c1csc(-c2ccc(Cl)cc2Cl)n1)N1CCOCC1` is 8 or above.
Reply: not met

Task item: Textbook exercise: given the entry `Cc1nc(-c2cccc3ccccc23)sc1C(=O)N1CCCCC1` , state whether its pEC50 is greater than or equal to 8.
Reply: not met
